// provenance: patent US20250034266A1

Assignment: determine reported EC50 for the given binders.
# measurement-target: T1, cynomolgus CCR8 (cynomolgus, UniProt G7NYJ2 1-355)
# T1 construct: whole, on cells
# T1 sequence (G7NYJ2 entry or part of it): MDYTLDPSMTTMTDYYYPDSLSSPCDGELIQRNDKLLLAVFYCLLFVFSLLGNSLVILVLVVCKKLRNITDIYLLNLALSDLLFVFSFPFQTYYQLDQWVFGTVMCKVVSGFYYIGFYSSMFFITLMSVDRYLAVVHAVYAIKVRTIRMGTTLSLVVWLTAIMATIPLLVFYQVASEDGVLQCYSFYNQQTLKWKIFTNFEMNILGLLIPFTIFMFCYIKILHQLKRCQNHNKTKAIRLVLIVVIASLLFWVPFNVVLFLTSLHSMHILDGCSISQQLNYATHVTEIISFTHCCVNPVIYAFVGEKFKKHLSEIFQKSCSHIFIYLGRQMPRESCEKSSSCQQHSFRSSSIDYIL
# assay-overview: FACS on HEK293-cynomolgus CCR8 cells
Answers are plain numbers, in nM.

Worked examples, 2 binders total:
binder: 149F2C10_G29I (antibody, V domains shown, NG site removed variant of 149F2C10) VH: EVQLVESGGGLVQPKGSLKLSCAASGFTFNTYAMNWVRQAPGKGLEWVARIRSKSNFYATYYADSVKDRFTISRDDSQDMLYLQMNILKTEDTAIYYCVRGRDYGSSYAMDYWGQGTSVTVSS VL: DIVMTQAAPSVPVTPGESVSISCRSSKSLLHSNINTYLYWFLQRPGQSPQLLIYRMSNLASGVPDRFSGSGSGTAFTLRISRVEAEDVGVYYCMQHLEYPLTFGAGTKLELK
scale-unit: nM
EC50: 0.19
--
binder: 149F2C10 (antibody, V domains shown, purified murine hybridoma antibody) VH: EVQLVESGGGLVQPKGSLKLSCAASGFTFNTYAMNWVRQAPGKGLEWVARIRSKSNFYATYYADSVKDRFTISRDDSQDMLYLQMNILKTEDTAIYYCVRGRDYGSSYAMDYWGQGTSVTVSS VL: DIVMTQAAPSVPVTPGESVSISCRSSKSLLHSNGNTYLYWFLQRPGQSPQLLIYRMSNLASGVPDRFSGSGSGTAFTLRISRVEAEDVGVYYCMQHLEYPLTFGAGTKLELK
scale-unit: nM
EC50: 0.145

Here is another binder to look at.
So for 149F2C10-CHO (antibody, V domains shown, The suffix -CHO is not explained) VH: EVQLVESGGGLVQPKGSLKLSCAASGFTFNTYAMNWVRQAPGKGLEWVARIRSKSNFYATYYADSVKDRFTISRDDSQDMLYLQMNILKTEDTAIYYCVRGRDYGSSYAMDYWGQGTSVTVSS VL: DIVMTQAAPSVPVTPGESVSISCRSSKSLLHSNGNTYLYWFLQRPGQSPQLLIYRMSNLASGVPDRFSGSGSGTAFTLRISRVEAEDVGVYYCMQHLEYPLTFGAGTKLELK , the logged EC50 turned out to be 0.131
